Quick reference: IC50 of the listed items.
molecular target: TrkA (Homo sapiens (Human))
Sequence (P04629 33-796): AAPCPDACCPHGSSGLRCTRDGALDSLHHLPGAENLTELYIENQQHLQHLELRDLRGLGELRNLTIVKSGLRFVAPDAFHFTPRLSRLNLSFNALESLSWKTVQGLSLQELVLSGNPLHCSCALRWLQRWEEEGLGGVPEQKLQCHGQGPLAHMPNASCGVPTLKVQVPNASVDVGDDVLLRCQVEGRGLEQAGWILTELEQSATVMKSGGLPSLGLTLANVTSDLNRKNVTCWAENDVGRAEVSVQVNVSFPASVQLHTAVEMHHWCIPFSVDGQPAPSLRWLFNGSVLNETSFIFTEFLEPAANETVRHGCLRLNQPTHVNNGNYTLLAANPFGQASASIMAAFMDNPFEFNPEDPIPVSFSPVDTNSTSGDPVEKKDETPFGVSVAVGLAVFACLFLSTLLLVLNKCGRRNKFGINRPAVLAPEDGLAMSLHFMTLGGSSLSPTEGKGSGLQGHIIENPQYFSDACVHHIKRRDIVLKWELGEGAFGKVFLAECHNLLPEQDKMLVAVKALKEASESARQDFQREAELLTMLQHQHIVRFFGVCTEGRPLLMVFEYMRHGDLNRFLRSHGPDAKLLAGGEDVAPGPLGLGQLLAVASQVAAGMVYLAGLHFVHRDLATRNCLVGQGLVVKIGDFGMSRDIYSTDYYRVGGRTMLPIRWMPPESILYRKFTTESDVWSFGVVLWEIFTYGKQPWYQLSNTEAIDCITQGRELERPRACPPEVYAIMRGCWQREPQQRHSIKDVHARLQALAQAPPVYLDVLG
Give your result in nM as a bare value.

The examples below pair each entry with its known result.
Compound: Cn1cc2cc(NC(=O)c3coc4c3C(=O)CN(S(C)(=O)=O)C4)ccc2n1 [Example 161]
IC50, nM: 872
--
Compound: CCOc1nc(N2CCN(C(C)=O)CC2)ccc1NC(=O)c1coc2c1C(=O)N(C)C(C)(C)C2 [Example 173]
IC50, nM: 3.5
--
Compound: COc1ccc(NC(=O)c2coc3c2C(=O)N(C)CC3)c(OC)n1 [Example 65]
IC50, nM: 146
--
Compound: Cn1cc2cc(NC(=O)c3coc4c3C(=O)C(C)(CO)CC4)ccc2n1 (centres unmarked) [Example 167]
IC50, nM: 35.3

What value of IC50 has been recorded for this entry: CN1CCN(CCn2ncc3cc(NC(=O)c4coc5c4C(=O)NCC5)ccc32)CC1 [Example 57]
34.6

Another compound to check: CC(=O)N1CCN(c2ccc(NC(=O)c3coc4c3C(=O)NCC4)c(OC3COC3)n2)CC1 [Example 21]
21.6

Another compound to check: CC(=O)N1CCN(c2ccc(NC(=O)c3coc4c3C(=O)NC(C)(C)C4)c(OC3COC3)n2)CC1 [Example 179]
4.9

Another compound to check: COc1cc(N2CCN(C(C)=O)CC2)ccc1NC(=O)c1coc2c1C(=O)C1(CCNCC1)OC2 [Example 170]
56.5

src = patent US9777020B2
